# reported EC50; entries follow
Molecular target: T1, PCSK9-BP15-His6 (human, UniProt Q8NBP7 31-692, biotin on the BP15 biotin receiving peptide)
T1 construct: It holds a signal peptide (underlined in print); also called WT PCSK9; bio-WT-PCSK9
Test: ELISA, bio-WT-PCSK9 captured on streptavidin plate
Report as a plain number; the unit ng/mL is understood.

Some binders with recorded EC50:
h001-12 (antibody, human IgG1, V domains shown, Variable regions only; also called h001_VH.1B + h001_VL.1C) VH: QVQLVQSGAEVKKPGASVKVSCKASGYTFTDYWMHWVRQAPGQGLEWMGYINPSSGFTKYHQNFKDRVTMTRDTSISTAYMELSRLTSDDTAVYYCARQYDYDEDWYFDVWGQGTTVTVSS VL: DIVMSQSPSSLSASVGDRVTITCKSSQSLLNSRTRKNFLAWYQQKPGKSPKLLIYWASTRESGVPDRFSGSGSGTDFTLTISSLQPEDFATYYCKQSFNLFTFGQGTKLEIK    10.3
h001-14 (antibody, human IgG1, V domains shown, Variable regions only; also called h001_VH.1C + h001_VL.1A) VH: QVQLVQSGAEVKKPGASVKVSCKASGYTFNDYWMHWVRQAPGQGLEWMGYINPSSGFTKYHQNFKDRVTMTRDTSISTAYMELSRLTSDDTAVYYCARQYDYDEDWYFDVWGQGTTVTVSS VL: DIQMTQSPSSLSASVGDRVTITCKSSQSLLNSRTRKNFLAWYQQKPGKAPKLLIYWASTRESGVPDRFSGSGSGTDFTLTISSLQPEDFATYYCKQSFNLFTFGQGTKLEIK    8.4
h001-1 (antibody, human IgG1, V domains shown, Variable regions only; also called h001_VH.1 + h001_VL.1) VH: QVQLVQSGAEVKKPGASVKVSCKASGYTFTDYWMHWVRQAPGQGLEWMGYINPSSGFTKYHQNFKDRVTMTRDTSISTAYMELSRLRSDDTAVYYCARQYDYDEDWYFDVWGQGTTVTVSS VL: DIQMTQSPSSLSASVGDRVTITCKSSQSLLNSRTRKNFLAWYQQKPGKAPKLLIYWASTRESGVPSRFSGSGSGTDFTLTISSLQPEDFATYYCKQSFNLFTFGQGTKLEIK    8.4

// switching to the query binder
INPUT: EC50 lookup needed for h001-23 (antibody, human IgG1, V domains shown, Variable regions only; also called h001_VH.1E + h001_VL.1B) VH: QVQLVQSGAEVKKPGASVKVSCKASGYTFNDYWMHWVKQAPGQGLEWIGYINPSSGFTKYHQNFKDKATLTADKSISTAYMELSRLTSDDTAVYYCARQYDYDEDWYFDVWGQGTTVTVSS VL: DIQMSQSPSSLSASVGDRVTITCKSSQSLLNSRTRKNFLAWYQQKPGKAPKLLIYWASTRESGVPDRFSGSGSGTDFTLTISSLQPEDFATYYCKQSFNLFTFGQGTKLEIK , thanks.
OUTPUT: 11.8
